Origin of values: patent US20030068675

TARGET ENTITY: ZFP SBS#1115 (synthetic)
Sequence (chain, as listed by the source): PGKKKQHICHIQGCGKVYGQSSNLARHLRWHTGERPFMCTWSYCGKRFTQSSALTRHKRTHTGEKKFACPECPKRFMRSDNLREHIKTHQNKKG
METHOD SUMMARY: EMSA
EXPERIMENTAL SETUP: tags: MBP fusion
pKd: −log10 of the molar value.
ASSAY ENDPOINT: pKd

> print(dat)
                                     binder  obs.value
1  CAGGTTGAT (dsDNA) DNA 1: CAGGTTGAT DNA 2: ATCAACCTG       9.15
